# study-system: T1, SAS1B extracellular domain (aa 164-431) polypeptide (Homo sapiens, UniProt Q6HA08)
# T1 construct: SAS1B extracellular domain (aa 164-431) polypeptide; made in house
# T1 sequence (Q6HA08 164-431): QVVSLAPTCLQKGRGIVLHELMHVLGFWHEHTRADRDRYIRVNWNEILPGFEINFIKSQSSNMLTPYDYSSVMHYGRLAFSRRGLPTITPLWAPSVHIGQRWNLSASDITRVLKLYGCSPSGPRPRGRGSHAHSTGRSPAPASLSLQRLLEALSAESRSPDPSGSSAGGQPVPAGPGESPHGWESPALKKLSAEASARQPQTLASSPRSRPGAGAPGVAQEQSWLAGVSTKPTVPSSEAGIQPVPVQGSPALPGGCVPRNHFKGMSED
# assay-details: Western blot with mammalian cell-expressed recombinant SAS1B, extracellular domain
# Assay type: binding
experimental-endpoint: Reaction with SAS1B extracellular domain (aa 164-431) polypeptide

SB1: mouse anti-SAS1B monoclonal antibody, IgG2a; VH SEQ ID NO:12, VL SEQ ID NO:13 (antibody, listed as Mus musculus, V domains shown) VH: EVQLQQSGPELVKPGSSVKISCKASGYTFTDYNMDWVKQSHGKSLEWIGAINPNNGGTSYNQKFKGKATLTVDKSSSTAYMELRSLTSEDSAVYYCATNEYWGQGTTLTVSS VL: NIVMTQSPKSMSMSVGERVTLSCKASENVGTYVSWYQQKPEQSPKLLIYGASNRYTGVPDRFTGSGSATDFTLTISSVQAEDLADYHCGQSYSYPWTFGGGTKLEIK ... none of the them reacted
SB7: mouse anti-human SAS1B monoclonal antibody, IgG2b; VH SEQ ID NO:16, VL SEQ ID NO:18 (antibody, listed as Mus musculus, V domains shown) VH: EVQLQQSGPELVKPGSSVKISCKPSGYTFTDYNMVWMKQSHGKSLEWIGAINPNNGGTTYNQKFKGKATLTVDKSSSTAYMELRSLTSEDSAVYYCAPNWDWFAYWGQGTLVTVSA VL: DVLMTQIPLSLPVSLGDQASISCRSSQSILHSNGNTYLEWYLQKPGQSPKLLIYKVSNRFSGVPDRFSGSGSGTDFTLKISRVEAEDLGVYYCFQGSHVPFTFGSGTKLEIK ... none of the them reacted
